system: ERRγ (GAL-ERRg); test: MH100x4 luciferase reporter with GAL-ERRg; format: cell-based; settings: Table 2; dose 5 (unit not given); None 1.00
assayReadout: Fold Activation

{"compound": "CCC(=C(CC)c1ccc(Oc2cccc(C=O)c2)cc1)c1ccc(O)cc1 [DY19]", "assayReadout": "Fold Activation", "numericValue": 0.82}

(I) CCC(=C(CC)c1ccc(O)c(C(C)C)c1)c1ccc(O)cc1 [DY17]
(II) C=CCc1cc(C(CC)=C(CC)c2ccc(O)c(CC=C)c2)ccc1O [DY22]
Input line: Between the entries labelled I and II , which has a larger Fold Activation value on record? When you have decided, please share the label of that item.
Output line: I
(I: 0.73, II: 0.50)

The values you see were collected from patent US8119695B2.
